Where these numbers come from: patent US20140087995A1

EXPERIMENTAL TARGET: T1, rat amylin receptor (rat calcitonin receptor + rat RAMP 3) (rat, UniProt P32214 25-516; Q9JJ73 23-147)
T1 construct: whole, on cells; membranes of transiently transfected BHK tk'ts 13 cells (Assay VI); also called rAmylin-R; rat amylin 3(a) receptor
T1 sequence (looked up) 1: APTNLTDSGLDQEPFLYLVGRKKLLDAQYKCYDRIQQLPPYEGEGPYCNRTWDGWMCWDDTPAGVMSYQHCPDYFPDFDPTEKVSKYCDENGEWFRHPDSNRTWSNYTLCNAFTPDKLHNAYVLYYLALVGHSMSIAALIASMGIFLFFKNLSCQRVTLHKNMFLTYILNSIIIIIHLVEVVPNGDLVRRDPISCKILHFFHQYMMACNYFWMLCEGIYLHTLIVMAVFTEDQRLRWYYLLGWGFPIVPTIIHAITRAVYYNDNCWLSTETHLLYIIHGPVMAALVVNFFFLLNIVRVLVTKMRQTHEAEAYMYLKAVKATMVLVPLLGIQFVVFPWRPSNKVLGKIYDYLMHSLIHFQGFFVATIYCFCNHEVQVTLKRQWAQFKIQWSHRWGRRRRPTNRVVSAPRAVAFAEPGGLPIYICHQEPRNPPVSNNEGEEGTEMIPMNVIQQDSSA
T1 sequence (looked up) 2: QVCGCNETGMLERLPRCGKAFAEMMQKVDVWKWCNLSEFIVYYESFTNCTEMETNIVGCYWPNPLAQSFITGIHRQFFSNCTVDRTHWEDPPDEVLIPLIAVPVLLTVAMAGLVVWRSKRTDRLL
PROTOCOL TEXT: SPA competition with 125I-rat amylin, membranes of BHK cells with rat calcitonin receptor + rat RAMP3 (Assay VI)
Numbered stars: 1 amine (or outer) side, 2 acyl side, 3 side chain; on linkers, the order of the positions; unused ones are H or OH. Bridge positions count the residues as written; N and C are the ends. Side chains are listed from the residue outwards. Ends that are not written are not given here. * marks the point of attachment. C20 diacid = O=C(O)CCCCCCCCCCCCCCCCCCC(=O)*; γGlu = O=C(O)[C@H](CCC(=O)[*:2])N[*:1]; AEEA = NCCOCCOCC(=O)O
READOUT: IC50

Example entries begin here.
>>> result("K([AEEA-γGlu-C20 diacid])CNTATCATQRLANFLRHSSPNFGAIPSSTNVGSNTY-NH2 (disulfide 2-7 (inferred), analogue of human amylin; also called compound 41)")
"1.37 nM"
>>> result("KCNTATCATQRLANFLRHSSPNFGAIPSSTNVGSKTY (C20 diacid-gGlu on the alpha amino group of the N-terminal residue (Lys 1); disulfide bridge between the two Cys residues; C-terminal amide, analogue of human amylin; also called compound 34) [N^α1-[(4S)-4-carboxy-4-(19-carboxynonadecanoylamino)butanoyl]-[Arg17,Pro21,Pro27,Lys35]-h-amylin]")
"1.72 nM"
>>> result("K([AEEA-γGlu-C20 diacid])CNTATCATQRLANFLRHSSPNFGAIPSSTNVGSRTY-NH2 (disulfide 2-7 (inferred), analogue of human amylin; also called compound 38)")
"0.383 nM"
>>> result("{C20 diacid-γGlu}-KCNTATCATQRLANFLRHSSPNFGAIPSSTPVGSETY-NH2 (disulfide 2-7 (inferred), analogue of human amylin; also called compound 28)")
"1.22 nM"
>>> result("{C20 diacid-γGlu}-KCNTATCATQRLAEFLRHSSPNFGAIPSSTPVGSNTY-NH2 (disulfide 2-7 (inferred), analogue of human amylin; also called compound 31)")
"0.619 nM"

[in] Which IC50 value is on record for K([AEEA-γGlu-C20 diacid])CNTATCATQRLANFLRHSSPNFGAIPSSTPVGSNTY-NH2 (disulfide 2-7 (inferred), analogue of human amylin; also called compound 49) ?
[out] 1.08 nM

[in] Need IC50 of {C20 diacid-γGlu}-KCNTATCATQRLAEFLRHSSPNFGAIPSSTNVGHNTY-NH2 (disulfide 2-7 (inferred), analogue of human amylin; also called compound 17) , thanks.
[out] 2.71 nM

[in] Please give the measured IC50 for this binder: {C20 diacid-γGlu}-KCNTATCATQRLAEFLRHSSPNFGAIPSSTNVGPNTY-NH2 (disulfide 2-7 (inferred), analogue of human amylin; also called compound 32)
[out] 0.176 nM

[in] Entry under review: K([AEEA-γGlu-C20 diacid])RCNTATCATQRLANFLRHSSPNFGAIPSSTNVGSHTY-NH2 (disulfide 3-8 (inferred), analogue of human amylin extended by Lys at the N-terminus; also called compound 45) . Reported IC50?
[out] 0.623 nM

[in] Please report the recorded IC50 for K([γGlu-C20 diacid])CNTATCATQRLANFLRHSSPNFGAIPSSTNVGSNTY-NH2 (disulfide 2-7 (inferred), analogue of human amylin; also called compound 48) [N^ε1-[(4S)-4-carboxy-4-(19-carboxynonadecanoylamino)butanoyl]-[Arg17,Pro21,Pro27]-h-amylin] .
[out] 0.558 nM
